- assayMethodText: yeast display, Sf9 membrane polyspecificity reagent, FACS + sequencing; frameworks hold sequencing errors

constructSequence | polyreactivity (PSR sort gate)
QVQLVESGGGLVQAGGSLRLSCAASGGIFAVYAMGWYRQAPGKERELVAAITWRGGSTRYADSVKGRFTISRDNAKTTVYLQMNSLKPEDTAVYYCAVRSTGYPSRYYFWGQGTQVTVSS | high polyreactivity
QVQLVESGGGLVQAGGSLRLSCAASGSIFSWYAMGWYRQAPGKERELVAAIRWSGGRTYYADSVKGRFTISRDNAKNTVYLQMNSLKPEDTAVYYCAADFYPDEYYYWGQGTQVTVSS | high polyreactivity
QVQLVESGGGLVQAGGSLRLSCAASGSIFVFNTMGWYRQAPGKERELVAAISDRGTRTYYADSVKGRFTISRDNAKNTVYLQMNSLKPEDTAVYYCATRVYFSPYRYDYWGQGTQVTVSS | high polyreactivity

###

- assayMethodText: yeast display, Sf9 membrane polyspecificity reagent, FACS + sequencing; frameworks hold sequencing errors
reportedProperty: polyreactivity (PSR sort gate)

Some sequences with recorded polyreactivity (PSR sort gate):
constructSequence | reportedProperty | dataValue
QVQLVESGGGLVQAGGSLRLSCAASGSTFWEYAMGWYRQAPGKERELVAAITWSTGSTYYADSVKGRFTISRDNAKNTVYLQMNSLKPEDTAVYYCNVDWGYFYTTQGFDYWGQGTQVTVSS | polyreactivity (PSR sort gate) | high polyreactivity
QVQLVESGGGLVQAGGSLRLSCAASGFIFDKYVMGWYRQAPGKERELVAAISSGGSTYYADSVKGRFTISRDNAKNTVYLQMNSLKPEDTAVYYCNAGGFWPWVYGYDSWGQGTQVTVSS | polyreactivity (PSR sort gate) | high polyreactivity
QVQLVESGGGLVQAGGSLRLSCAASGRTINPYGMGWYRPAPGKERELVADINSGGITNYADSVKGRFTISRDNAKNTVYLQMNSLKPEDTAVYYCNADGFIQPDDWRNFAGDYWGQGTQVTVSS | polyreactivity (PSR sort gate) | low polyreactivity
QVQLVESGGGLVQAGGSLRLSCAASGGTFYHYAMGWYRQAPGKERELVAAISWGGGSTYYADSVKGRFTISRDNAKNTVYLQMNSLKPEHTAVYYCAARRGFRFRDYYWGQGTQVTVSS | polyreactivity (PSR sort gate) | high polyreactivity
QVQLVESGGGLVQAGGRLRLSCAASGRTFYYYAMGWYRQAPGKERELVASITYRGTRTNYADSVKGRFTISRDNAKNTVYLQMNILKPEDTAVYSCNAEVYTGYGYWGQGTQVTVSS | polyreactivity (PSR sort gate) | high polyreactivity

Value of measured polyreactivity (PSR sort gate) for the entry LVQVVESGGGLVQAGCSLRLSCAASGRTFGVYAMGWYRQAPGKEWELVASISRSGGSTYYADSLKGRFTISRDNAKNTVYLQMNSLIPEDTAVYYCAAVYKRGMDYWGQGTQVTVSS : high polyreactivity

Value of measured polyreactivity (PSR sort gate) for the entry QVQLVESGGGLVHAGGSLRLSCAASGLTFVNYAMGWYRQAPGKERELVATISKTGGSTYYADSVKGRFTISRDNAKNTVFLQMNSLKPEDTAVYYCAVDAYYYKWYDYWGQGTQVSVSS : high polyreactivity

Value of measured polyreactivity (PSR sort gate) for the entry QVQLVESGGGLVQAGGSLRLSCAATGNTFTYNTMGWYRQAPGKERELVARITFSAGRTYYADSVKGRFTISRDNAKNTVYLQMNSLKPEDTAVYYCAAYSFGLRSYYLYDYWGQGTEVTVSS : high polyreactivity

Value of measured polyreactivity (PSR sort gate) for the entry QVQLVESGGGLVQEGGSLRLRCAASGSIFYRYAMGWYRQAPGKERELVAAISSTGSTYYADSVKGRFTISRDNAKNTVYLQMNSLKPEDTAVYYCAARQGYRSYRRYDYWGQGTQVTVSS : high polyreactivity

Value of measured polyreactivity (PSR sort gate) for the entry QVQLVESGGGLVQAGGSLRLSCAPSGSIFHYNAMGWYRQAPGKEREFVAVISKSSGSTFYADSVKGRFTISRDNAKNTVYLLMISLKPEDTAVYYCNRVTKRYPNIGNYWGQGTQVSVSS : high polyreactivity

Value of measured polyreactivity (PSR sort gate) for the entry QVQLVESGGGLVQAGGSLRLSGAASGFTFGRNAMGGYRQAPGKEREFVAAISKSATSKYYADSVKGRFTISRDNAKNTVYLQMNSLKPEDTSVYYCARTNYAKRWDFDYWGQGTQVTVSS : low polyreactivity

###

- assayMethodText: yeast display, Sf9 membrane polyspecificity reagent, FACS + sequencing; frameworks hold sequencing errors
reportedProperty: polyreactivity (PSR sort gate)

Some sequences with recorded polyreactivity (PSR sort gate):
constructSequence | dataValue
QVQLVESGGGLVQAGGSLRLSCAASGSIFSRYTMGWYRQAPGKERELVARINSSGTSTYYADSVKGRFTISRDNAKITVYLQMNSLKPEDTAVYYCARTSRHVRYDYWGQGTQVTVSS | low polyreactivity
QVQLVESGGCLVQAGGSLRLSCAASGRIFQGYAMAWYRQAPGKEREFVAAITLSGGSTYYADSVKGRFTISRDNAKNTVYLQMNSLKPEDTAVYYCNAYYPDEPSLDDYWGQGTQVTVSS | low polyreactivity
QVLLVESGGGLVQAGGSLRLSCAASGRTFYNYSMGWYRQAPGKERELVAAISGGGTTNYADTVKGRFTISRDNAKNTVYLQMNSLKPEDTAVYSCNAARTRWATGYDYWGQGTQVTVSS | low polyreactivity
QVQLVESGVGLVQAGGSLRLSCAASGSTFRGYAMGWYRQAPGKERELVAAISGIGGSTYYADSVKGRFTISRDNAKNTVYLQMNSLKPEDTAVYYCNAVSGDSGDYWGQGTQVTVSS | low polyreactivity
QVQLVESGGGLVQAGGSLRLSCAASGYIFPAYGMGWYIQAPGKERELVAAISWSTGSTYYADSVKGRFTISRDNAKNTVYLQMNSLKPEDTAVYYCDAGRPRRVPDHWYIYYYWGQATQVTVSS | low polyreactivity

Value of measured polyreactivity (PSR sort gate) for the entry QVQLVESGGGLVQAGGSLRLSCAASGFIFVDNAMGWYRQAPGKERELVAAITYRGGSTYYADSVKGRFTISRDNAKNTVYLQMNSLKPEDTAVYYCNADYGDTFEYDYWGQGTQVTVSS : low polyreactivity

Value of measured polyreactivity (PSR sort gate) for the entry QVQLVESGGGLVQAGGSLRLSCAASGFTFGYNAMGWYRQAPGKERELVAAISRSGGRTYYADSVKGRFTISRDNAKNTVYLQMNSLKPEDTAVYYCARRYRDYGRYGYWGQGTQVTVSS : high polyreactivity

Value of measured polyreactivity (PSR sort gate) for the entry QVQLVESGGGLVQAGGSLRLSCAASGRTFGSNAMGWYRQAPGKERELVAAISSSDSTNYADSVKGRFTISRDNAKNTVYLQMNSLKPEDTAVYYCNAGHPVRSPGYDYWGQGTQVTVSS : low polyreactivity

Value of measured polyreactivity (PSR sort gate) for the entry QVQLVESVGGLVQAGGSLRLSCAASGSTFYANAMGWYRQAPGKERELVAAITWGDASTYYADSVKGRFTISRDNAKNTVYLQMNSLKPEDTAVYYCAVDESYGSSSDMDYWGQGTQVTVSS : low polyreactivity

Value of measured polyreactivity (PSR sort gate) for the entry QVQLVESGGGLVQAGGSLRLSCAASGFTFVGNAMGWYRQAAGKEWELVADITGSDGSTYYADSVKGRFTISRDNAKNTVYLQINSLKPEDTAVYYCAASPPYKLVWWRRMDYWGQGTQVTVSS : low polyreactivity

Value of measured polyreactivity (PSR sort gate) for the entry QVQLVESGGGLVQAGGSLRLSCAASGRIFSYNAMGWYRQAPGKERELVAAIRVRGGSTYYADSVKGRFTLSRDNAKNTVYLQMNSLKPEDTAVYYCNASDYKISATNAVVRYYYWGQGTQVTVSS : high polyreactivity

###

- assayMethodText: yeast display, Sf9 membrane polyspecificity reagent, FACS + sequencing; frameworks hold sequencing errors
reportedProperty: polyreactivity (PSR sort gate)

Some sequences with recorded polyreactivity (PSR sort gate):
constructSequence | dataValue
QVQLVESGGGLVQAGGSLRLSCAASGSIFWYYAMGWYRQAPGKERELVADITIRGGRTYYADSVKGRFTISRDNAKNTVYLQMNSLKPEDTAVYYCAADWEYWGFGLYDYWGQGTQVTVSS | low polyreactivity
QVQLVESGGGLVQAGGSLRLSCAAYGSTFHYYSMGWYRQAPGKERELVAAISSSGVSTYYADSVKGRFTISRDYAKNTVYLQMNSLKPEDTAVYYCNRASVFHYRWYYYWGLGTQVTVSS | high polyreactivity
QVQLVESGGGLVQAGGSLRLSCAASGSIFSRNAKGWYRQAPGKERELVAAISRGANTYYADSVKGRLTISRDNAKNSVYLQMNSLKPEDTAVYYCAARIYKFPYTYDYWGQGTQVTVSS | high polyreactivity
QVQIVESGGGLVQAGGSLRLSCAASGSIFQGNPMGWYRQAPWKEREFVAAISWSGDSTYYADSVKGRFTISRDNAKYSVYLQMNSLKTEDTAVYYCGADPWDIYRRLSPGDHDYWGQCTQVTVSS | low polyreactivity

Next, consider the following sequence.
Value of measured polyreactivity (PSR sort gate) for the entry QVQLVESGGGLVQAGGSLSLSCAASGRIFGYYAMGGYRQAPGKERELVAAITTGGNTYYAESVKGRFTISRDNAKNTVNLQMNSLKPEDTAVYYCNKRSYAYYSYAVFTWVDYWGQGTQVTVSS : low polyreactivity
